Measure: melting point

{"Compound": "CC(=O)N[C@H]1CC[C@H](Nc2nccc(-n3ccc4c(C(C)C#N)cccc43)n2)CC1 (stereo partly drawn)", "Measure": "melting point", "Recorded Value": "244 to 245 °C"}
{"Compound": "CCCOc1cccc2c1cnn2-c1ccnc(N[C@H]2CC[C@H](NS(C)(=O)=O)CC2)n1", "Measure": "melting point", "Recorded Value": "253 to 254 °C"}
{"Compound": "O=C([C@H]1CC[C@H](Nc2ncc(Cl)c(-n3ccc4ccccc43)n2)CC1)N1CCCC1", "Measure": "melting point", "Recorded Value": "182 to 182.5 °C"}

---

# melting point listing for each entry below
Measure: melting point

{"Molecule": "O=S(=O)(Cc1ccccc1)c1cccc2c1ccn2-c1ccnc(N[C@H]2CC[C@H](O)CC2)n1 [Example 14]", "Measure": "melting point", "Recorded Value": "132.1 to 134.5 °C"}
{"Molecule": "COC(=O)c1cccc2c1ccn2-c1ccnc(N[C@H]2CC[C@H](NS(=O)(=O)C3CC3)CC2)n1 [Compound 257]", "Measure": "melting point", "Recorded Value": "250 to 251 °C"}
{"Molecule": "Cn1cc(-c2ccnc(N[C@H]3CC[C@H](O)CC3)n2)c2ccccc21 [Example 17]", "Measure": "melting point", "Recorded Value": "194.5 to 195.3 °C"}
{"Molecule": "CN(c1cccc2c1ccn2-c1ccnc(N[C@H]2CC[C@H](C(C)(C)O)CC2)n1)S(C)(=O)=O [Compound 164]", "Measure": "melting point", "Recorded Value": "216.5 to 217.5 °C"}
{"Molecule": "CC(C)(O)[C@H]1CC[C@H](Nc2nccc(-n3ncc4c(OCCCO)cccc43)n2)CC1 [Compound 183]", "Measure": "melting point", "Recorded Value": "229.5 to 231 °C"}
{"Molecule": "NS(=O)(=O)CCCOc1cccc2c1cnn2-c1ccnc(N[C@H]2CC[C@H](C(=O)N3CCC(O)CC3)CC2)n1 [Compound 243]", "Measure": "melting point", "Recorded Value": "237 to 238 °C"}
{"Molecule": "CC(=O)NCCCOc1cccc2c1cnn2-c1ccnc(N[C@H]2CC[C@H](N(C)S(C)(=O)=O)CC2)n1 [Compound 213]", "Measure": "melting point", "Recorded Value": "226 to 227 °C"}
{"Molecule": "CS(=O)(=O)N[C@H]1CC[C@H](Nc2nccc(-n3ccc4c(CC#N)cccc43)n2)CC1 [Compound 110]", "Measure": "melting point", "Recorded Value": "235 to 235.5 °C"}
{"Molecule": "CS(=O)(=O)CCCOc1cccc2c1ccn2-c1ccnc(N[C@H]2CC[C@H](N3CCCS3(=O)=O)CC2)n1 [Compound 305]", "Measure": "melting point", "Recorded Value": "164.1 to 172.5 °C"}
{"Molecule": "O=C([C@H]1CC[C@H](Nc2nccc(-n3ncc4c(OCCCO)cccc43)n2)CC1)N1CCCC1 [Compound 144]", "Measure": "melting point", "Recorded Value": "187.5 to 188.5 °C"}
{"Molecule": "CN(C)C(=O)[C@H]1CC[C@H](Nc2nccc(-n3ccc4c(OCCCS(C)(=O)=O)cccc43)n2)CC1 [Compound 251]", "Measure": "melting point", "Recorded Value": "169 to 170 °C"}
{"Molecule": "CS(=O)(=O)N[C@H]1CC[C@H](Nc2nccc(-n3cc(C#N)c4ccccc43)n2)CC1 [Compound 247]", "Measure": "melting point", "Recorded Value": "> 300 °C"}
{"Molecule": "O[C@H]1CC[C@H](Nc2nccc(-c3noc4ccc(F)cc34)n2)CC1 [Compound 83]", "Measure": "melting point", "Recorded Value": "172 to 173.9 °C"}
{"Molecule": "CS(=O)(=O)CCCOc1cccc2c(-c3ccnc(N[C@H]4CC[C@H](C(=O)N5CCC(O)CC5)CC4)n3)noc12 [Compound 307]", "Measure": "melting point", "Recorded Value": "186 to 187 °C"}
{"Molecule": "CC(C)(C)OC(=O)N[C@H]1CC[C@H](Nc2nccc(-n3ccc4c(OCCCS(C)(=O)=O)cccc43)n2)CC1 [Compound 181]", "Measure": "melting point", "Recorded Value": "227.5 to 228.5 °C"}
{"Molecule": "CN(C)S(=O)(=O)N[C@H]1CC[C@H](Nc2nccc(-n3ncc4ccccc43)n2)CC1 [Compound 136]", "Measure": "melting point", "Recorded Value": "238.5 to 239.7 °C"}
{"Molecule": "CC(=O)N[C@H]1CC[C@H](Nc2nccc(-n3ncc4c(OC[C@@H](O)CO)cccc43)n2)CC1 (stereo in doubt) [Compound 154]", "Measure": "melting point", "Recorded Value": "202 to 205 °C"}
{"Molecule": "CS(=O)(=O)CCCOc1cccc2c1cnn2-c1ccnc(N[C@H]2CC[C@H](N3CCCS3(=O)=O)CC2)n1 [Compound 215]", "Measure": "melting point", "Recorded Value": "206 to 207 °C"}

Origin of measurements: patent US8399462B2
